- Tested on: 699152-130-R-J1-PDC complex spheroid viability;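 also: spheroids exposed to agents for 7 days before viability reading; percent of DMSO vehicle control viability so 100% = vehicle and 0% = no viable signal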
- procedure-summary: Anticancer human tumor 699152-130-R-J1-PDC patient-derived pancreatic carcinoma cell line growth inhibition [POLQ]
- assay-setup: second compound 3.16 µM; first compound 0.1 µM; active compounds read low
result-type: viability, T/C (%)
Express the result in % but write the number alone.

Please review the following examples before continuing.
molecule	tested-target	unit-of-measure	viability, T/C
C=CCn1c(=O)c2cnc(Nc3ccc(N4CCN(C)CC4)cc3)nc2n1-c1cccc(C(C)(C)O)n1 + COC1C(OC(N)=O)C(O)C(Oc2ccc3c(O)c(NC(=O)c4ccc(O)c(CC=C(C)C)c4)c(=O)oc3c2C)OC1(C)C	699152-130-R-J1-PDC complex spheroid viability	%	96.6
CC1COCCN1c1cc(C2(O)CC3CCC(C2)O3)c2cnn(-c3ccn[nH]3)c2n1 (stereo not given) + COC1C(OC(N)=O)C(O)C(Oc2ccc3c(O)c(NC(=O)c4ccc(O)c(CC=C(C)C)c4)c(=O)oc3c2C)OC1(C)C	699152-130-R-J1-PDC complex spheroid viability	%	83
CC1COCCN1c1cc(C2(S(C)(=N)=O)CC2)nc(-c2ccnc3[nH]ccc23)n1 (stereo not given) + COC1C(OC(N)=O)C(O)C(Oc2ccc3c(O)c(NC(=O)c4ccc(O)c(CC=C(C)C)c4)c(=O)oc3c2C)OC1(C)C	699152-130-R-J1-PDC complex spheroid viability	%	99.2
C#Cc1c(F)ccc2cc(O)cc(-c3ncc4c(N5CC6CCC(C5)N6)nc(OCC56CCCN5CC(F)C6)nc4c3F)c12 (stereo not given) + COC1C(OC(N)=O)C(O)C(Oc2ccc3c(O)c(NC(=O)c4ccc(O)c(CC=C(C)C)c4)c(=O)oc3c2C)OC1(C)C	699152-130-R-J1-PDC complex spheroid viability	%	19.6
C=CCn1c(=O)c2cnc(Nc3ccc(N4CCN(C)CC4)cc3)nc2n1-c1cccc(C(C)(C)O)n1 + Cc1cccc(N(C)C(=O)C2C(O)CCN2c2nc(C)cc(C(F)(F)F)c2C#N)c1	699152-130-R-J1-PDC complex spheroid viability	%	99.2

// viability, T/C value for CCCS(=O)(=O)Nc1ccc(F)c(C(=O)c2c[nH]c3ncc(-c4ccc(Cl)cc4)cc23)c1F + Cc1cccc(N(C)C(=O)C2C(O)CCN2c2nc(C)cc(C(F)(F)F)c2C#N)c1 : 112

// recorded viability, T/C for C=CCn1c(=O)c2cnc(Nc3ccc(N4CCN(C)CC4)cc3)nc2n1-c1cccc(C(C)(C)O)n1 + Nc1ccc(C#CCN(C(=O)Cc2ncc(C(F)(F)F)cc2C(F)(F)F)c2ccc(F)cc2)nn1 : 112

Per the record, CC(C)n1c(=O)n(C)c2cnc3cc(F)c(-c4ccc(OCCCN5CCCCC5)nc4)cc3c21 + Nc1ccc(C#CCN(C(=O)Cc2ncc(C(F)(F)F)cc2C(F)(F)F)c2ccc(F)cc2)nn1 has viability, T/C of 98.2

Query O=c1[nH]cc(F)c(=O)[nH]1 + Nc1ccc(C#CCN(C(=O)Cc2ncc(C(F)(F)F)cc2C(F)(F)F)c2ccc(F)cc2)nn1 yields viability, T/C of 104

Reported viability, T/C for COc1cccc2c1C(=O)c1c(O)c3c(c(O)c1C2=O)CC(O)(C(=O)CO)CC3OC1CC(N)C(O)C(C)O1 (stereo not given) + COC1C(OC(N)=O)C(O)C(Oc2ccc3c(O)c(NC(=O)c4ccc(O)c(CC=C(C)C)c4)c(=O)oc3c2C)OC1(C)C was 88.1

Source: PubChem BioAssay AID1963835
